Test system: UACC-257 melanoma
assay-info: NCI-60 one-dose screen, 48 h (100 = growth as untreated, 0 = no growth, -100 = all killed)
condition-info: 10 µM
About 83,000 compounds went through this panel and 20% of them were active in at least one assay; those are over-represented in the sample as a whole.
Assignment: determine reported growth for the given compounds.
# unit: % | format: bare number

Reported growth for CSc1[nH]c(=O)ncc1F was 72.8

Lab book: growth of O=C(NCO)c1ccccc1 noted as 111

Record N#CCCN(CCCN1CCOCC1)CN1C(=O)c2ccccc2C1=O , field growth: 107

The recorded growth for COc1cc(C(N)=O)cc(OC)c1OC is 102

// sample CCOC(=O)c1[nH]c(C)c(C(=O)O)c1C , its growth was 111

The compound Cc1nc2ccccc2c2nnc(SCC(=O)N(Cc3ccccc3)c3ccccc3)n12 showed growth equal to 92.8

The recorded growth for entry Nc1ncnc2[nH]ncc12 equals 16.3

Value of measured growth for the entry O=C(c1ccccc1)C1CCC1 : 102

Form: compound = Oc1ccccc1-c1nnco1 ; growth = 97.3

Recorded growth (compound COC(=O)c1ccccc1Br ): 114

Record summary for NC(=S)N/N=C/c1ccc(N)cc1 : reported growth = 82.9

The recorded growth for entry COC(=O)c1cc(-c2ccc(Cl)c(Cl)c2)[nH]c(=O)c1C#N equals 98.4

Field growth (entry O=C1Cc2ccccc2C(=O)O1 ) reads 91.9

Form field growth, entry O=[N+]([O-])c1ccc(O)c(S(=O)(=O)O)c1 : 99.3
